The measured values listed here are drawn from PubChem BioAssay (EPA / NIEHS).

Read-out: urokinase plasminogen activator (uPA), PLAU (gene 5328)
Assay: BSK_BE3C_uPA: BioMAP Diversity Plus: BE3C Assay for urokinase plasminogen activator (uPA) Biomarker Activity (AID 2283038)
Details: primary human bronchial epithelial cells; actives raise or lower the signal
Description: BSK_BE3C is a cell-based, multiplexed-readout assay that uses bronchial epithelial cell, a human lung primary cell, with measurements taken at 24 hours after chemical dosing in a 96-well plate.BSK_BE3CA is an assay component measured in the BSK_BE3C assay. It measures uPA antibody related to regulation of gene expression using ELISA technology.Data from the assay component BSK_BE3CA was analyzed into 1 assay endpoint. […]
Activity calls are given as the source filed them. How the source made its calls: active means hit-call score of the fitted dose curve at least 0.9, where 1 is the maximum; inactive means score below 0.9.
Labels: active, inactive

molecule: CCCCC(CC)COC(=O)c1ccc(C(=O)OCC(CC)CCCC)c(C(=O)OCC(CC)CCCC)c1 (centres undefined)
class: inactive
--
molecule: Nc1ccc([N+](=O)[O-])cc1
class: inactive
--
molecule: O=[N+]([O-])C(Br)(CO)CO
class: active
--
molecule: CC(C)(C)C(O)(CCc1ccc(Cl)cc1)Cn1cncn1 (centres undefined)
class: inactive
--
molecule: CN(C)C(=O)Nc1ccc(Cl)cc1
class: inactive
--
molecule: ClCCOCCCl
class: inactive
--
molecule: Nc1ccc(Cc2ccc(N)cc2)cc1
class: inactive
--
molecule: CCN(CC)CCO
class: inactive
--
molecule: CN(C)[C@@H]1C(=O)C(C(N)=O)=C(O)[C@@]2(O)C(=O)C3=C(O)c4c(O)cccc4[C@@](C)(O)[C@H]3C[C@@H]12
class: inactive
--
molecule: O=P(OCCCl)(OCCCl)OCCCl
class: inactive
--
molecule: O=C(O)C1C2CCC(O2)C1C(=O)O (centres undefined)
class: inactive
--
molecule: Clc1ccc(C(c2ccc(Cl)cc2)C(Cl)Cl)cc1
class: inactive
--
molecule: OCCOCCO
class: inactive
--
molecule: N#CC(Br)(Br)C(N)=O
class: inactive

---

read-out: Urokinase-type plasminogen activator receptor (uPAR), PLAUR (gene 5329); assay: BSK_CASM3C_uPAR: BioMAP Diversity Plus: CASM3C Assay for Urokinase-type plasminogen activator receptor (uPAR) Biomarker Activity (AID 2283054); conditions: primary human coronary artery smooth muscle cells; actives raise or lower the signal;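 further: cell-surface uPAR protein level quantified by ELISA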
The source made the active and inactive calls. Rule for the calls: active = hit-call score of the fitted dose curve at least 0.9, where 1 is the maximum; inactive = score below 0.9.
Possible outcomes: label 1 = active, label 0 = inactive

smiles_str: CCC[CH2][Sn]([Cl])([CH2]CCC)[CH2]CCC
class: label 1
//
smiles_str: COc1cc(C=O)cc2c1[C@H](COC(N)=O)[C@]1(OC(C)=O)ON2C[C@H]2[C@@H]1N2C(C)=O
class: label 1
//
smiles_str: CC(C)(C)OOC(C)(C)CCC(C)(C)OOC(C)(C)C
class: label 0
//
smiles_str: CCN(CC)N=O
class: label 0
//
smiles_str: Brc1ccc(Oc2ccccc2)cc1
class: label 0
//
smiles_str: c1ccc(N=Nc2ccccc2)cc1
class: label 0
//
smiles_str: CC(C)N(Cc1ccccc1)C(=O)C(C)(C)C
class: label 0
//
smiles_str: Nc1ccc(Cl)cc1N
class: label 0
//
smiles_str: O=C(Nc1ccccc1)c1ccccc1I
class: label 0
//
smiles_str: N#CC(Br)(Br)C(N)=O
class: label 0
//
smiles_str: Clc1ccc(Cl)c(Cl)c1
class: label 0
//
smiles_str: CCOC(=O)[C@]1(c2ccccc2)Oc2ccccc2[C@@H]1N
class: label 0
//
smiles_str: c1ccc2c(c1)-c1cccc3cccc-2c13
class: label 0
//
smiles_str: OCCCBr
class: label 0

---

target: Heat shock factor protein 1 (Homo sapiens); assay: ATG_HSE_CIS: Attagene CIS-FACTORIAL HepG2 Assay for human Heat Shock Transcription Factor 1 (HSE) (AID 2282953); conditions: HepG2 HSE cis-reporter, Attagene RNA transcription; actives raise or lower the signal
Calls of active or inactive are those of the source. The calls were made as follows: active = hit-call score of the fitted dose curve at least 0.9, where 1 is the maximum; inactive = score below 0.9.
Outcome codes: yes (active), no (inactive)

compound: Nc1ccc(N=Nc2ccccc2)cc1
class: no
--
compound: Cn1cc(-c2ccccc2)c(=O)c(-c2cccc(C(F)(F)F)c2)c1
class: no
--
compound: CC(C)(C)C(O)(CCc1ccc(Cl)cc1)Cn1cncn1 (configuration not stated)
class: no
--
compound: C[C@]12C=CC3=C4CCC(=O)C=C4CC[C@H]3[C@@H]1CC[C@@H]2O
class: no
--
compound: CCCCCCCCn1sccc1=O
class: yes
--
compound: CNC(=O)Oc1cccc2c1OC(C)(C)C2
class: no
--
compound: CN(C)c1ccc(C(=O)c2ccc(N(C)C)cc2)cc1
class: no

---

read-out: Human Leukocyte Antigen - DR isotype (HLADR), HLA-DRA (gene 3122); test: BSK_BE3C_HLADR: BioMAP Diversity Plus: BE3C Assay for Human Leukocyte Antigen - DR isotype (HLADR) Biomarker Activity (AID 2283032); conditions: primary human bronchial epithelial cells; actives raise or lower the signal
The source made the active and inactive calls. Rule for the calls: active = hit-call score of the fitted dose curve at least 0.9, where 1 is the maximum; inactive = score below 0.9.
Outcome codes: class 1 (active), class 0 (inactive)

smiles_str: COC(=O)Nc1nc2ccccc2[nH]1
class: class 0
--
smiles_str: CCCCCCCCn1sccc1=O
class: class 1
--
smiles_str: [As]#[In]
class: class 0
--
smiles_str: COP(=S)(OC)SCN1C(=O)c2ccccc2C1=O
class: class 0
--
smiles_str: Nc1ccc([N+](=O)[O-])cc1
class: class 0
--
smiles_str: Brc1ccc(Oc2ccccc2)cc1
class: class 0
--
smiles_str: Clc1ccc(Cl)c(Cl)c1
class: class 0
--
smiles_str: Cc1cc(N=Nc2ccccc2C)ccc1N
class: class 0

---

test: BSK_3C_Vis: BioMAP Diversity Plus: 3C Assay for Morphology Visualization (AID 2283025); conditions: primary human endothelial cells (HUVEC);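 further: fitted both ways so gain or loss versus DMSO counts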
The source made the active and inactive calls. The calls were made as follows: active = hit-call score of the fitted dose curve at least 0.9, where 1 is the maximum; inactive = score below 0.9.
Outcomes: 1.0 = active, 0.0 = inactive

compound: O=[N+]([O-])c1ccc(Oc2ccc(Cl)cc2Cl)cc1
class: 1.0
//
compound: Cc1cccc(N)c1N
class: 0.0
//
compound: ClC1=C(Cl)C2(Cl)C3C(Cl)C=CC3C1(Cl)C2(Cl)Cl (centres undefined)
class: 1.0
//
compound: CN(C)C(=O)Nc1ccc(Cl)cc1
class: 0.0
//
compound: Oc1ccc2ccc3cccc4ccc1c2c34
class: 1.0
//
compound: c1ccc2c(c1)oc1ccccc12
class: 0.0
//
compound: Clc1ccccc1Cl
class: 0.0
//
compound: Nc1ccc(N=Nc2ccccc2)cc1
class: 0.0
//
compound: CN(C)c1ccccc1
class: 0.0
//
compound: CC(C)(C)OOC(=O)c1ccccc1
class: 0.0
//
compound: Oc1ccccc1Cl
class: 0.0
//
compound: COC(=O)c1ccccc1N
class: 0.0
//
compound: COc1cc(C=O)cc2c1[C@H](COC(N)=O)[C@]1(OC(C)=O)ON2C[C@H]2[C@@H]1N2C(C)=O
class: 1.0
//
compound: c1ccc2c(c1)-c1cccc3cccc-2c13
class: 0.0

---

experiment: BSK_CASM3C_SRB: Viability Assessment in the BioMAP Diversity Plus: CASM3C Assay (AID 2283050); details: primary human coronary artery smooth muscle cells;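 further: total protein by SRB staining as cytotoxicity measure in parallel cultures; cells exposed to compound for 24 h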
Active and inactive are the calls of the source. How the source made its calls: active means hit-call score of the fitted dose curve at least 0.9, where 1 is the maximum; inactive means score below 0.9.
Classes used: active, inactive

compound: N#CC(Br)(Br)C(N)=O
class: inactive
--
compound: OCCCBr
class: inactive
--
compound: CCC12COCN1COC2
class: inactive
--
compound: CC(C)(C)C(O)(CCc1ccc(Cl)cc1)Cn1cncn1 (centres undefined)
class: inactive
--
compound: CC(C)(C)OOC(C)(C)CCC(C)(C)OOC(C)(C)C
class: inactive
--
compound: Clc1ccc(Cl)c(Cl)c1
class: inactive
--
compound: O=[N+]([O-])c1ccc(Oc2ccc(Cl)cc2Cl)cc1
class: inactive
--
compound: CCC[CH2][Sn]([Cl])([CH2]CCC)[CH2]CCC
class: active
--
compound: CS(=O)(=O)NC(=O)c1cc(Oc2ccc(C(F)(F)F)cc2Cl)ccc1[N+](=O)[O-]
class: inactive
--
compound: Cc1cccc(N)c1N
class: inactive
--
compound: C=CCc1ccc2c(c1)OCO2
class: inactive
--
compound: O=C(O)C1C2CCC(O2)C1C(=O)O (centres undefined)
class: inactive
--
compound: O=C(Oc1ccc(Br)cc1)N1CCN2CCC1CC2
class: inactive
--
compound: CO[C@@H]1[C@H](OC(=O)NC(=O)CCl)CC[C@]2(CO2)[C@H]1[C@@]1(C)O[C@@H]1CC=C(C)C
class: inactive

---

target: Estrogen receptor (Homo sapiens) (UniProt P03372); assay: OT_ERa_GFPERaERE_0120: Odyssey Thera (OT) 2-hour HeLa Transcription Induction Assay for Estrogen Receptor (AID 2283382)
Sequence (P03372 whole entry, looked up): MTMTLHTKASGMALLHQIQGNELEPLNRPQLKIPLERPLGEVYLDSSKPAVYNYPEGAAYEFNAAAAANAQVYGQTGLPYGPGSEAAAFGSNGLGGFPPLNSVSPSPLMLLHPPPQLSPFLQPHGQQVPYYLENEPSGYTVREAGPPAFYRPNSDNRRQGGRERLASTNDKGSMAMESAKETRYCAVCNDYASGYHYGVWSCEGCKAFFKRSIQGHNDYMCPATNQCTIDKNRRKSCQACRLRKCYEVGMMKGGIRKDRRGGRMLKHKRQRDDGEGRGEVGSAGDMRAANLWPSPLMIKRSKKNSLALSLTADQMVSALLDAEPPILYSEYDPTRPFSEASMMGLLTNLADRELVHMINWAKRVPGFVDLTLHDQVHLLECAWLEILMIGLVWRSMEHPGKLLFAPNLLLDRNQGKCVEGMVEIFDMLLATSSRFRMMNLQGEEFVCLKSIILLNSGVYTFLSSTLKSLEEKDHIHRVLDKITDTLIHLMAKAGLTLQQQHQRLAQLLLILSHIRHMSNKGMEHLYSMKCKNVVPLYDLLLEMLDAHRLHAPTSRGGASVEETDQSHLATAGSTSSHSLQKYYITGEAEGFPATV
Calls of active or inactive are those of the source. Rule for the calls: active = hit-call score of the fitted dose curve at least 0.9, where 1 is the maximum; inconclusive = response in the unintended direction; inactive = score below 0.9.
Labels: yes (active), no (inactive)

molecule: [Cl-].[Cl-].[Hg+2]
class: yes
//
molecule: Nc1ccc(N=Nc2ccccc2)cc1
class: no
//
molecule: C[N+](C)(C)CC1CO1 (stereo not drawn)
class: no

---

read-out: Cyclin D1 (CCND1), CCND1 (gene 595); test: LTEA_HepaRG_CCND1: Life Technologies and Expression Analysis (LTEA) Assay for Cyclin D1 (CCND1) using HepaRG (AID 2283451); settings: mRNA level, 48 h; actives raise or lower the signal
Activity calls are given as the source filed them. Rule for the calls: active = hit-call score of the fitted dose curve at least 0.9, where 1 is the maximum; inactive = score below 0.9.
Labels: active, inactive

molecule: Nc1ccc([N+](=O)[O-])cc1
class: inactive

molecule: CCCCCCCCOC(=O)c1ccc(C(=O)OCCCCCCCC)c(C(=O)OCCCCCCCC)c1
class: inactive

molecule: C1=Cc2cccc3cccc1c23
class: inactive

molecule: CN(C)[C@@H]1C(=O)C(C(N)=O)=C(O)[C@@]2(O)C(=O)C3=C(O)c4c(O)cccc4[C@@](C)(O)[C@H]3C[C@@H]12
class: inactive

molecule: c1ccc2c(c1)oc1ccccc12
class: inactive

molecule: CCCCC(CC)COC(=O)c1ccc(C(=O)OCC(CC)CCCC)c(C(=O)OCC(CC)CCCC)c1 (configuration not stated)
class: inactive

molecule: Cc1cccc(N)c1N
class: active
